For each of the molecules below, state its melting point.

Q. Looking for the measured melting point of COc1cc(C(C)C)c2c(c1)S(=O)(=O)N(COc1cc(=O)n3c(n1)CCCC3)C2=O , can you help?
A. 184 to 186 °C

Q. Looking for the measured melting point of Cc1cc([N+](=O)[O-])c(C(=O)O)cc1F , can you help?
A. 163 to 165 °C

Q. Looking for the measured melting point of O=C(c1ccc([N+](=O)[O-])cc1)c1ccc2c(n1)C(O)CCCN2 (configuration not stated) , can you help?
A. 182 to 185 °C

Q. Looking for the measured melting point of CCC1=C(C)CN(C(=O)NC2COc3cc(OC)c(S(=O)(=O)NC(=S)NC)cc3C2)C1=O (configuration not stated) , can you help?
A. 205 °C

Q. Looking for the measured melting point of CC(C)N1CCC2(CC1)CSC1=C(O2)c2ccccc2C(=O)C1=O , can you help?
A. 197 to 198 °C

Q. Looking for the measured melting point of COc1cc(-c2cccs2)ccc1C(=O)C=Cc1ccc(F)c(F)c1 , can you help?
A. 73 to 79 °C

Q. Looking for the measured melting point of Cc1ccc(-c2ccccc2C(=O)Nc2ccc(C(=O)N3CCc4sc(NC(=N)N)nc4-c4ccccc43)cc2)cc1 , can you help?
A. > 230 °C

Q. Looking for the measured melting point of COc1ccc2cc(-c3ccc(OCCN4CCCC4)cc3)sc2c1 , can you help?
A. 151 to 154 °C

Q. Looking for the measured melting point of COC(=O)c1nc2ccc(C=O)cc2cc1C , can you help?
A. 118 to 121 °C

Q. Looking for the measured melting point of CCCC1=C(C#N)C(c2ccccc2Cl)c2c[nH]nc2N1 (configuration not stated) , can you help?
A. 248 °C

Q. Looking for the measured melting point of CC(C)c1cc(Oc2c(I)cc(CP(=O)(O)O)cc2I)ccc1O , can you help?
A. > 220 °C

Q. Looking for the measured melting point of COc1ccc(C[C@H](NC(=O)[C@H](CC(C)C)NC(=O)OCc2ccccc2)C(=O)CSC)cc1 , can you help?
A. 100 to 101 °C

Q. Looking for the measured melting point of Cc1ccc(Sc2cc(C(=O)O)ccc2C(=O)O)cc1 , can you help?
A. 326 °C

Q. Looking for the measured melting point of CCOc1cc(NCCSCc2[nH]cnc2C)nc2ccccc12 , can you help?
A. 152 to 154 °C

Q. Looking for the measured melting point of C#CCOC(=O)Nc1ccc(C2=NNC(=O)CC2C)cc1 (configuration not stated) , can you help?
A. 204 to 205 °C

Q. Looking for the measured melting point of CCCC(=O)C1=C(O)CC(c2c(C)c(C)c(C)c3c2OC(C)C3C)CC1=O (configuration not stated) , can you help?
A. 119 to 120 °C

Q. Looking for the measured melting point of O=[N+]([O-])c1ccc2c(c1)CN1C(=S)SC[C@@H]1C2 , can you help?
A. 182 °C

Q. Looking for the measured melting point of COc1ccc(OC)c2c1C[C@](O)(C1(C)OCCO1)CC2=O , can you help?
A. 183 to 184 °C

Q. Looking for the measured melting point of CC[C@H](Cn1cnnc1)n1cnc2cc3c(=O)n([C@H](CC)Cn4ncnn4)cnc3cc2c1=O , can you help?
A. 130 to 132 °C

Q. Looking for the measured melting point of O=C1CCCCCCCCCCC=CCCCCCCCCCCC1O (configuration not stated) , can you help?
A. 78 °C

Q. Looking for the measured melting point of NS(=O)(=O)c1cc2[nH]c(=O)ccc2s1 , can you help?
A. > 300 °C

Q. Looking for the measured melting point of CC1COC(C(=O)C(C)(C)C)C(C(=O)C(C)(C)C)O1 (configuration not stated) , can you help?
A. 123 °C

Q. Looking for the measured melting point of COC(=O)c1c(Br)c(F)cc2nn(C)cc12 , can you help?
A. 146 to 147 °C

Q. Looking for the measured melting point of Oc1cnc2[nH]ccc2c1 , can you help?
A. 206 to 209 °C

Q. Looking for the measured melting point of CC(C)CCN1CCC2(CC1)CSC1=C(O2)c2ccccc2C(=O)C1=O , can you help?
A. 143 to 146 °C

Q. Looking for the measured melting point of CS(=O)C1C=Nc2cc(F)ccc2C1=O (configuration not stated) , can you help?
A. 265 °C

Q. Looking for the measured melting point of CCCN1CCC=C(c2cccc3[nH]ccc23)C1 , can you help?
A. 168 °C

Q. Looking for the measured melting point of Cc1cccc(-n2nc(C)cc2-c2ccnc(N)c2)c1 , can you help?
A. 124 to 125 °C

Q. Looking for the measured melting point of COc1ccc(-c2nc(Sc3nc(-c4ccc(OC)cc4)c(-c4ccc(OC)cc4)[nH]3)[nH]c2-c2ccc(OC)cc2)cc1 , can you help?
A. 244 to 245 °C

Q. Looking for the measured melting point of CCOc1cc2c(cc1O)C(=NO)CC1C2CCC2(C)C(OC(C)=O)CCC12 (configuration not stated) , can you help?
A. 226 to 227 °C

Q. Looking for the measured melting point of O=S(=O)(CC1CC=CCO1)c1ccc(Oc2ccc(OC(F)(F)F)cc2)cc1 (configuration not stated) , can you help?
A. 62 to 72 °C

Q. Looking for the measured melting point of O=C(/C=C/c1ccc(C(=O)O)cc1)NOC1CCCCO1 (configuration not stated) , can you help?
A. 182 °C

Q. Looking for the measured melting point of O=C1Cc2c(OCc3ccccc3)cc(OCc3ccccc3)cc2O[C@@H]1c1ccc(OCc2ccccc2)c(OCc2ccccc2)c1 , can you help?
A. 144 °C

Q. Looking for the measured melting point of CCOC(=O)c1nc(C(=O)Oc2ccccc2)sc1N , can you help?
A. 168 °C

Q. Looking for the measured melting point of CCCCCCCNC(=O)Nc1ccccc1C(=O)NC1CCCN(C(c2ccccc2)c2ccccc2)C1 (configuration not stated) , can you help?
A. 112 °C

Q. Looking for the measured melting point of CN(C)c1ncc(-c2cccc(-n3cnc4cc(-c5ccoc5)ccc43)c2)cn1 , can you help?
A. 183 to 184 °C

Q. Looking for the measured melting point of C[C@H]1N(C(=O)c2ccc(C(F)(F)F)cc2)CC(O)O[C@@]1(Cn1cncn1)c1ccc(Cl)cc1Cl (relative stereo) , can you help?
A. 199 to 200 °C

Q. Looking for the measured melting point of CNc1cc(F)c(C#N)cc1F , can you help?
A. 160 to 163 °C

Q. Looking for the measured melting point of C=CCNc1c(CO)cnc2cn(C(C)(C)OC)nc12 , can you help?
A. 152 to 154 °C

Q. Looking for the measured melting point of O=C(c1ccccc1)c1cc(Cl)ccc1OCCCl , can you help?
A. 73 to 74.5 °C

Q. Looking for the measured melting point of Nc1c2c(nc3ccccc13)CCSC2 , can you help?
A. 214 to 216 °C

Q. Looking for the measured melting point of CN1C(=O)CCC1(O)c1cccc(C(F)(F)F)c1 (configuration not stated) , can you help?
A. 137 to 139 °C
